Every entry's value here was drawn from patent US20180215825A1.

TESTED_SYSTEM: T1, human PD-L1-ECD/His (human, UniProt Q9NZQ7 19-238)
T1 construct: Expressed in 293-F cells; also called PD-L1/His; human PD-L1/His
T1 sequence (Q9NZQ7 19-238): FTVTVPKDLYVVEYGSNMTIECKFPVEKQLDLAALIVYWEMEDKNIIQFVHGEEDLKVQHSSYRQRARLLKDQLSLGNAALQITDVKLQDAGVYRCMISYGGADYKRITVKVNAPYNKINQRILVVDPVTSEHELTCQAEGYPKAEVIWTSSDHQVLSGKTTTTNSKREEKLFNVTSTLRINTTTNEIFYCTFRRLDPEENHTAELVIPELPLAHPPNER
METHOD: SPR (BIAcore T-200), human PD-L1/His on CM5 chip, Fab injected
READOUT_TYPE: kon (M⁻¹ s⁻¹)
One number for each entry, in M⁻¹ s⁻¹.

Some entries whose results are on file:
BINDER	kon [M⁻¹ s⁻¹]
hu333-3C2 Fab (Fab, V domains shown, Human Fab format; constant parts not restated) VH: EVQLVESGGGLVQPGGSLRLSCAVSGFSLTSYGVHWVRQAPGKGLEWVAVIWAGGSTNYADSVKGRFTISKDNSKNTVYLQMNSLRAEDTAVYYCAKPYGNSAMDYWGQGTLVTVSS VL: DIQMTQSPSSLSASVGDRVTITCKASQDVGIVVAWYQQKPGKAPKLLIYWASIRHTGVPSRFSGSGSGTEFTLTISSLQPDDFATYYCQQYSNYPLYTFGQGTKVEIK	1.42e+06
hu333-4A2 Fab (Fab, V domains shown, Human IgG1 Fab format: Vh fused to human IgG1-CH1 with C-terminal His6 tag, Vk fused to the constant region of kappa chain) VH: EVQLVESGGGLVQPGGSLRLSCAVSGFSLTSYGVHWVRQAPGKGLEWVAVIWAGGSTNYVDSVKGRFTISKDNAKNTVYLQMNSLRAEDTAVYYCAKPYGTSAMDYWGQGTLVTVSS VL: DIQMTQSPSSLSASVGDRVTITCKASQDVGIVVAWYQQKPGKAPKLLIYWASIRHTGVPSRFSGSGSGTEFTLTISSLQPDDFATYYCQQYSNYPLYTFGQGTKVEIK	3.88e+06
hu333-3A2 Fab (Fab, V domains shown, Human Fab format; constant parts not restated) VH: EVQLVESGGGLVQPGGSLRLSCAVSGFSLTSYGVHWVRQAPGKGLEWVAVIWAGGSTNYVDSVKGRLTISKDNAKNTVYLQMNSLRAEDTAVYYCAKPYGNSAMDYWGQGTLVTVSS VL: DIQMTQSPSSLSASVGDRVTITCKASQDVGIVVAWYQQKPGKAPKLLIYWASIRHTGVPSRFSGSGSGTEFTLTISSLQPDDFATYYCQQYSNYPLYTFGQGTKVEIK	1.28e+06

Proceeding to the next binder to report its kon.
Reported kon of hu333-4B2 Fab (Fab, V domains shown, Human IgG1 Fab format: Vh fused to human IgG1-CH1 with C-terminal His6 tag, Vk fused to the constant region of kappa chain) VH: EVQLVESGGGLVQPGGSLRLSCAVSGFSLTSYGVHWVRQAPGKGLEWVAVIWAGGSTNYADSVKGRFTISKDTSKNTVYLQMNSLRAEDTAVYYCAKPYGTSAMDYWGQGTLVTVSS VL: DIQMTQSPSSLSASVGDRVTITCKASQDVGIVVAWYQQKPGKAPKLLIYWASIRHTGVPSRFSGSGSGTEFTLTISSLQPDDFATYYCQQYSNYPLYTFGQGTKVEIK : 3.78e+06
